Tested on: A498 renal
testMethodNotes: NCI tumour cell line growth inhibition, 48 h
metric: GI50

Using the record for O=C(Nc1ccc(I)cc1)c1cc([N+](=O)[O-])ccc1O , state its measured GI50. 1.45 µM

Specify measured GI50 for COC(=O)Nc1nc2ccc(S(=O)c3ccccc3)cc2[nH]1 (stereo not given) . 15.5 µM

For the molecule O=[N+]([O-])c1cnc(Sc2ccncn2)s1 , give its reported GI50. 18.6 µM

Please report GI50 for the following molecule: COc1ccc2c(c1)C(=O)/C(=C/c1ccc(OCC(=O)Nc3nccs3)cc1)O2 7.99 µM

Please indicate GI50 recorded for CCOC(=O)Nc1nc2ccc(OCC)cc2s1 > 100 µM

Tell me GI50 reported for C=C1C(=O)[C@@]23CC[C@H]4[C@@](C)(CCC[C@@]4(C)C(=O)OC)[C@@H]2CC[C@]1(O)C3 1.49 µM

State its GI50 for this molecule: O=C(NCCNc1nccc(-c2c(-c3cccc(O)c3)nc3sccn23)n1)c1ccccc1O 7.67 µM

Complete the entry with GI50 for Cc1cc(=O)n2[nH]c(-c3ccc(C(C)(C)C)cc3)cc2n1 1.54 µM

Report measured GI50; entry is CCc1ccc2c(c1)C(=O)c1c-2n(CCCBr)c(=O)c2cc([N+](=O)[O-])ccc12 > 50 µM

Please look at this molecule and report its GI50: CC(=O)[O][Hg][c]1c(N)c(C)cc(C)c1F 5.35 µM

* * *

For each record, write down the corresponding log10 TGI.
Test system: BT-549 breast
testMethodNotes: NCI tumour cell line growth inhibition, 48 h
Hello, just confirming the data are log10 of TGI with units of µM.

Specify reported log10 TGI for the compound shown: COc1c2ccoc2c(/C=C/C=O)c2oc(-c3ccccc3)cc(=O)c12 1.12

Report log10 TGI for CCOc1ccccc1-n1c(CN2CCN(C(=O)COc3ccc(CNCCCCCCN4C5CCCC4CC(OC(=O)Nc4cc(C)ccc4OC)C5)cc3)CC2)nc2ccccc2c1=O (stereo not drawn) 0.51

Provide log10 TGI value for the following compound: COc1cccc(-c2nc3ccccc3c(=O)[nH]2)c1 1.79

Specify log10 TGI for CC1OC(OC2C(OC(=O)[C@]34CCC(C)(C)C[C@H]3C3=CC[C@@H]5[C@@]6(C)CC[C@H](OC7OC(C(=O)O)C(O)C(O)C7O)C(C)(C)[C@@H]6CC[C@@]5(C)[C@]3(C)C[C@H]4O)OCC(O)C2O)C(O)C(O)C1OC1OCC(OC2OCC(O)C(O)C2O)C(O)C1O (stereo partly drawn) and stop. 1.11

Give a short answer stating reported log10 TGI for O=C(C1OC1c1ccc(Cl)cc1)C12CC3CC(CC(C3)C1)C2 (stereo not drawn) . 1.72

Using known records, supply log10 TGI for CC1=CC(=O)[C@@H](O)[C@]2(C)[C@H]3[C@@]4(O)OC[C@]35[C@H]([C@@H](C)[C@H]4O)[C@@H](OC(=O)C(C)(C)CO)C(=O)O[C@@H]5C[C@@H]12 -0.37

Return the recorded log10 TGI value; entry: O=C1/C(=C/c2ccc([N+](=O)[O-])cc2)COc2ccc(O)c(O)c21 0.50

Using known records, supply log10 TGI for Cc1ccc(N=N/C(=N/NC(=O)c2cc(Cl)ccc2O)c2ccc(N(CCC#N)CCC#N)cc2C)cc1 1.95
